List of minimum inhibitory concentration (MIC) of the antibiotic values.
- Test system: Salmonella typhimurium LT2 strain SL 696
- experimentalProtocol: MIC of antibiotics in the presence of polymyxin nonapeptide, microtiter plate, S. typhimurium
- Type: cell-based
- conditionNotes: PMBN 3 μg/ml; S. typhimurium SL 696; 18 h
Field format: numeric only.

Solved entries:
- compound: "Cc1onc(-c2ccccc2Cl)c1C(=O)N[C@@H]1C(=O)N2[C@@H]1SC(C)(C)[C@@H]2C(=O)O [Cloxacillin, cloxacillin]"
  obsValue: 100
- compound: "CO[C@@H]1[C@@H](OC(N)=O)[C@@H](O)[C@H](Oc2ccc3c(O)c(NC(=O)c4ccc(O)c(CC=C(C)C)c4)c(=O)oc3c2C)OC1(C)C [Novobiocin, novobiocin]"
  obsValue: 3
- compound: "CCOc1ccc2ccccc2c1C(=O)N[C@@H]1C(=O)N2[C@@H]1SC(C)(C)[C@@H]2C(=O)O [Nafcillin, nafcillin]"
  obsValue: 100

# lookup: minimum inhibitory concentration (MIC) of the antibiotic of CCOC(=O)CCC(=O)O[C@H]1[C@H](O[C@@H]2[C@@H](C)[C@H](O[C@H]3C[C@@](C)(OC)[C@@H](O)[C@H](C)O3)[C@@H](C)C(=O)O[C@H](CC)[C@@](C)(O)[C@H](O)[C@@H](C)C(=O)[C@H](C)C[C@@]2(C)O)O[C@H](C)C[C@@H]1N(C)C [Erythromycin, erythromycin ethylsuccinate]
10

Also need CC(=O)O[C@H]1C[C@@]2(C)[C@@H](C[C@@H](O)[C@H]3[C@@]4(C)CC[C@@H](O)[C@@H](C)[C@@H]4CC[C@@]32C)/C1=C(\CCC=C(C)C)C(=O)O [Fusidic acid, fusidic acid] , thanks.
30

Another: CC1(C)S[C@@H]2[C@H](NC(=O)Cc3ccccc3)C(=O)N2[C@H]1C(=O)O [Benzylpenicillin, benzylpenicillin]
3

Taken from patent US4510132A.
